- System: rice
- assay_procedure: Test B flood test rice
- Type: in vivo, Oryza sativa
- measurement_parameters: Rate 500 g/ha, listed under Postemergence (flood test species); scale 0 to 10, 0 no effect, 10 complete control
Recorded Rice plant response rating, one value per entry.
Just the number, please, no unit attached.

// worked examples, Rice plant response rating included
// returns reported Rice plant response rating for input Cc1ccccc1-n1c(=O)on(C(=O)N(c2cc(F)cc(F)c2)C(C)C)c1=O
0

And Cc1nn(C)c(Cl)c1-n1c(=O)on(C(=O)N(c2ccccc2)C(C)C)c1=O ?
0

Next, consider the following compound.
// returns reported Rice plant response rating for input CC(C)N(C(=O)n1oc(=O)n(C(C)C)c1=O)c1ccc(Cl)cc1
0
